FYI, the data here is from patent US10570179B2.

System: S. aureus USA 300
Experiment: Minimal inhibitory concentration, microbroth dilution
Assay type: cell-based
Settings: Staphylococcus aureus, USA300; MIC; read-out: Minimal Inhibitory Concentrations (μM) S. aureus USA 300
Numbered stars: 1 amine (or outer) side, 2 acyl side, 3 side chain; on linkers, the order of the positions; unused ones are H or OH. Bridge positions count the residues as written; N and C are the ends. Square brackets hold non-standard residues; d marks the D form. Peptide text beside a SMILES is read from it. * marks the point of attachment. X6 = O=C([C@@H]1CS(=O)(=O)CCN1[*:1])[*:2]; Phe(3-Me) = Cc1cccc(C[C@H](N)C(=O)O)c1; Pro(4S-Me) = C[C@@H]1CN[C@H](C(=O)O)C1; NH(4-Cl-2-F-phenyl) = Fc1cc(Cl)ccc1N*; Pro(4R-Me) = C[C@H]1CN[C@H](C(=O)O)C1; X1 = O=C([C@@H]1CSCCN1[*:1])[*:2]; Hyp = O=C(O)[C@@H]1C[C@@H](O)CN1; NH(4-Et-phenyl) = CCc1ccc(N*)cc1; aThr = C[C@H](O)[C@H](N)C(=O)O; Pip = O=C(O)[C@@H]1CCCCN1; X3 = c1cc2c(cc1N*)OCCO2; CO = O=C([*:1])[*:2]; X2 = Fc1cc(N*)ccc1Cl
Please note: MIC exactly at 1 µM is 0.0. Only values below 1 µM get 1.0.

These recorded examples may help you get a feel for the data.
Compound	Answer Label
Cc1cccc(C[C@H](NC(=O)Nc2ccc3c(c2)OCCO3)C(=O)N[C@@H]2C(=O)N3C[C@H](O)C[C@H]3C(=O)N3CCCC[C@H]3C(=O)N[C@@H](C)C(=O)N3C[C@H](C)C[C@H]3C(=O)O[C@H]2C)c1 [Compound 28] ({X3-CO}-[Phe(3-Me)][aThr][Hyp][Pip]A[Pro(4R-Me)]; ester 2-C)	0.0
CCc1ccc(NC(=O)N[C@@H](Cc2cccc(C)c2)C(=O)N[C@@H]2C(=O)N3C[C@H](O)C[C@H]3C(=O)N3CCCC[C@H]3C(=O)N[C@@H](C)C(=O)N3C[C@H](C)C[C@H]3C(=O)O[C@H]2C)cc1 [Compound 25] ({NH(4-Et-phenyl)-CO}-[Phe(3-Me)][aThr][Hyp][Pip]A[Pro(4R-Me)]; ester 2-C)	1.0
Cc1cccc(C[C@H](NC(=O)Nc2ccc(Cl)cc2F)C(=O)N[C@@H]2C(=O)N3CCC[C@H]3C(=O)N3CCS(=O)(=O)C[C@H]3C(=O)N[C@@H](C)C(=O)N3C[C@H](C)C[C@H]3C(=O)O[C@H]2C)c1 [Compound 40] ({NH(4-Cl-2-F-phenyl)-CO}-[Phe(3-Me)][aThr]P[X6]A[Pro(4R-Me)]; ester 2-C)	0.0
Cc1cccc(C[C@H](NC(=O)Nc2ccc(Cl)cc2F)C(=O)N[C@@H]2C(=O)N3CCC[C@H]3C(=O)N3CCSC[C@H]3C(=O)N[C@@H](C)C(=O)N3C[C@H](C)C[C@H]3C(=O)O[C@H]2C)c1 [Compound 38] ({NH(4-Cl-2-F-phenyl)-CO}-[Phe(3-Me)][aThr]P[X1]A[Pro(4R-Me)]; ester 2-C)	1.0
Cc1cccc(C[C@H](NC(=O)Nc2ccc3c(c2)OCCO3)C(=O)N[C@@H]2C(=O)N3CCC[C@H]3C(=O)N3CCCC[C@H]3C(=O)N[C@@H](C)C(=O)N3C[C@H](C)C[C@H]3C(=O)O[C@H]2C)c1 [Compound 21] ({X3-CO}-[Phe(3-Me)][aThr]P[Pip]A[Pro(4R-Me)]; ester 2-C)	0.0
Cc1cccc(C[C@H](NC(=O)Nc2ccc(Cl)c(F)c2)C(=O)N[C@@H]2C(=O)N3C[C@H](O)C[C@H]3C(=O)N3CCCC[C@H]3C(=O)N[C@@H](C)C(=O)N3C[C@@H](C)C[C@H]3C(=O)O[C@H]2C)c1 [Compound 77] ({X2-CO}-[Phe(3-Me)][aThr][Hyp][Pip]A[Pro(4S-Me)]; ester 2-C)	0.0

API: query returns whether the compound falls strictly under 1 µM in MIC. Query: Cc1cccc(C[C@H](NC(=O)Nc2ccc(Cl)cc2F)C(=O)N[C@@H]2C(=O)N3CCC[C@H]3C(=O)N3CCCC[C@H]3C(=O)N[C@@H](C)C(=O)N3C[C@H](C)C[C@H]3C(=O)O[C@H]2C)c1 [Compound 3] ({NH(4-Cl-2-F-phenyl)-CO}-[Phe(3-Me)][aThr]P[Pip]A[Pro(4R-Me)]; ester 2-C) 1.0

###

Entries and their pEC50
Target: S. aureus ClpP (Sa-ClpP) (Staphylococcus aureus, UniProt Q2G036)
Sequence (Q2G036 whole entry): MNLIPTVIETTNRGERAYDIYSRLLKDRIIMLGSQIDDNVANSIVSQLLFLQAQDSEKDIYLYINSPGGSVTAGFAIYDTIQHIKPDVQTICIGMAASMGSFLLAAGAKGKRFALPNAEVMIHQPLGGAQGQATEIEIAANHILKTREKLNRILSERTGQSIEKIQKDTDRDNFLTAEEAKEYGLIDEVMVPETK
Assay: Casein-BODIPY digestion assay (ClpP activation)
Numbered stars: 1 amine (or outer) side, 2 acyl side, 3 side chain; on linkers, the order of the positions; unused ones are H or OH. Bridge positions count the residues as written; N and C are the ends. Square brackets hold non-standard residues; d marks the D form. Peptide text beside a SMILES is read from it. * marks the point of attachment. Piperazine(2S-CO,4-Me) = CN1CCN[C@H](C(=O)O)C1; Phe(3-OMe) = COc1cccc(C[C@H](N)C(=O)O)c1; Morpholine(3S-CO) = O=C(O)[C@@H]1COCCN1; Phe(3-Me) = Cc1cccc(C[C@H](N)C(=O)O)c1; NH(4-Cl-2-F-phenyl) = Fc1cc(Cl)ccc1N*; Pro(4R-Me) = C[C@H]1CN[C@H](C(=O)O)C1; Hyp = O=C(O)[C@@H]1C[C@@H](O)CN1; NH(4-Cl-phenyl) = Clc1ccc(N*)cc1; NH(4-Et-phenyl) = CCc1ccc(N*)cc1; aThr = C[C@H](O)[C@H](N)C(=O)O; Pip = O=C(O)[C@@H]1CCCCN1; CO = O=C([*:1])[*:2]
Here pEC50 is given on a logarithmic scale as minus log10 of the concentration in mol/L.

Compound	Reported Value
CCc1ccc(NC(=O)N[C@@H](Cc2cccc(C)c2)C(=O)N[C@H]2COC(=O)[C@@H]3C[C@@H](C)CN3C(=O)[C@H](C)NC(=O)[C@@H]3CN(C)CCN3C(=O)[C@@H]3CCCN3C2=O)cc1 [Compound 16] ({NH(4-Et-phenyl)-CO}-[Phe(3-Me)]SP[Piperazine(2S-CO,4-Me)]A[Pro(4R-Me)]; ester 2-C)	6.20

Can you share its pEC50? I mean this compound: "Cc1cccc(C[C@H](NC(=O)Nc2ccc(Cl)cc2)C(=O)N[C@H]2COC(=O)[C@@H]3C[C@@H](C)CN3C(=O)[C@H](C)NC(=O)[C@@H]3CCCCN3C(=O)[C@@H]3CCCN3C2=O)c1" 6.60

Item COc1cccc(C[C@H](NC(=O)Nc2ccc(Cl)cc2F)C(=O)N[C@H]2COC(=O)[C@@H]3C[C@@H](C)CN3C(=O)[C@H](C)NC(=O)[C@@H]3CN(C)CCN3C(=O)[C@@H]3CCCN3C2=O)c1 [Compound 19] ({NH(4-Cl-2-F-phenyl)-CO}-[Phe(3-OMe)]SP[Piperazine(2S-CO,4-Me)]A[Pro(4R-Me)]; ester 2-C) has what recorded pEC50? 5.60

What value of measured pEC50 is listed for Cc1cccc(C[C@H](NC(=O)Nc2ccc(Cl)cc2F)C(=O)N[C@@H]2C(=O)N3C[C@H](O)C[C@H]3C(=O)N3CCCC[C@H]3C(=O)N[C@@H](C)C(=O)N3C[C@H](C)C[C@H]3C(=O)O[C@H]2C)c1 [Compound 6] ({NH(4-Cl-2-F-phenyl)-CO}-[Phe(3-Me)][aThr][Hyp][Pip]A[Pro(4R-Me)]; ester 2-C) ? 6.64

Tell me the measured pEC50 of Cc1cccc(C[C@H](NC(=O)Nc2ccc(Cl)cc2)C(=O)N[C@@H]2C(=O)N3C[C@H](O)C[C@H]3C(=O)N3CCOC[C@H]3C(=O)N[C@@H](C)C(=O)N3C[C@H](C)C[C@H]3C(=O)O[C@H]2C)c1 [Compound 73] ({NH(4-Cl-phenyl)-CO}-[Phe(3-Me)][aThr][Hyp][Morpholine(3S-CO)]A[Pro(4R-Me)]; ester 2-C) , please. 6.60

Report pEC50 for CCc1ccc(NC(=O)N[C@@H](Cc2cccc(C)c2)C(=O)N[C@@H]2C(=O)N3C[C@H](O)C[C@H]3C(=O)N3CCCC[C@H]3C(=O)N[C@@H](C)C(=O)N3CCC[C@H]3C(=O)O[C@H]2C)cc1 [Compound 58] ({NH(4-Et-phenyl)-CO}-[Phe(3-Me)][aThr][Hyp][Pip]AP; ester 2-C) please. 6.57

Any idea what its pEC50 is? The compound is "Cc1cccc(C[C@H](NC(=O)Nc2ccc(Cl)cc2F)C(=O)N[C@H]2COC(=O)[C@@H]3C[C@@H](C)CN3C(=O)[C@H](C)NC(=O)[C@@H]3CCCCN3C(=O)[C@@H]3C[C@H](N)CN3C2=O)c1" 6.24
